target: CDK2 (Homo sapiens); construct: High-Throughput Measurement of Cellular Endogenous CDK2; endogenous in cells; host or cells: OVCAR3; experiment: High-throughput HTRF measurement of cellular endogenous CDK2 level (degradation, DC50/Dmax) in OVCAR3 cells, 6 h; type: cell-based; details: 6 h compound treatment, HTRF total CDK2, read-out: DC50_OVCAR3_6h
Endpoint name: DC50

// known answers, use as guide
>  <Compound>
Cn1nc(N2CCC(=O)NC2=O)c2ccc(C3CCN(CC4CCN(c5cc(S(=O)(=O)N6CCC(Nc7ncc(C(F)(F)F)cn7)CC6)ccc5C#N)CC4)CC3)c(F)c21

>  <Study system>
CDK2 (Homo sapiens)

>  <DC50>
10 to 100 nM

$$$$
>  <Compound>
Cn1nc(N2CCC(=O)NC2=O)c2ccc(C3CCN(CC4(C)CCN(c5cccc(S(=O)(=O)N6CCC(Nc7ncc(Cl)cn7)CC6)c5)CC4)CC3)cc21

>  <Study system>
CDK2 (Homo sapiens)

>  <DC50>
10 to 100 nM

$$$$
>  <Compound>
Cn1c(=O)n(C2CCC(=O)NC2=O)c2cccc(C3CCN(Cc4cc(F)cc(S(=O)(=O)N5CCC(Nc6ncc(OC(F)F)cn6)CC5)c4)CC3)c21 (centres unmarked)

>  <Study system>
CDK2 (Homo sapiens)

>  <DC50>
1 to 10 nM

$$$$
>  <Compound>
Cn1nc(N2CCC(=O)NC2=O)c2cc(F)c(C3CCN(CC4CCN(c5cccc(S(=O)(=O)N6CCC(Nc7ncc(C(F)(F)F)cn7)CC6)c5)CC4)CC3)cc21

>  <Study system>
CDK2 (Homo sapiens)

>  <DC50>
10 to 100 nM

$$$$

Shifting focus to the compound that follows.
Consider Cn1c(=O)n(C2CCC(=O)NC2=O)c2ccc(C3CCN(CC4CCN(c5cc(S(=O)(=O)N6CCC(Nc7ncc(Cl)cn7)CC6)ccc5C#N)CC4)CC3)cc21 (centres unmarked) . Its measured DC50 is 1 to 10 nM

---

biological target: CDK2 (Homo sapiens); construct: High-Throughput Measurement of Cellular Endogenous CDK2; endogenous in cells; assay: Inhibition of CDK2: phospho-Rb (S807/811) HTRF measurement in OVCAR3 cells, 24 h; conditions: 24 h compound treatment, read-out: pRB_OVCAR3_24h
Endpoint name: IC50

// known answers, use as guide
>  <Molecule>
Cn1nc(N2CCC(=O)NC2=O)c2ccc(C3CCN(Cc4cccc(S(=O)(=O)N5CCC(Nc6ncc(C(F)(F)F)cn6)CC5)c4)CC3(F)F)cc21 (stereo not shown)

>  <IC50>
100 to 500 nM

$$$$
>  <Molecule>
Cn1nc(N2CCC(=O)NC2=O)c2ccc(C3CCN(Cc4ccc(S(=O)(=O)N5CCC(Nc6ncc(Cl)cn6)CC5)cc4)CC3)cc21

>  <IC50>
1 to 100 nM

$$$$
>  <Molecule>
Cn1nc(N2CCC(=O)NC2=O)c2ccc(C3CCN(CC4CCN(c5cc(S(=O)(=O)N6CCC(Nc7ncc(C(F)(F)F)cn7)CC6)ccc5C#N)CC4)CC3)cc21

>  <IC50>
1 to 100 nM

$$$$
>  <Molecule>
Cn1nc(N2CCC(=O)NC2=O)c2cc(F)c(N3CCN(CC4CCN(c5cccc(S(=O)(=O)N6CCC(Nc7ncc(Cl)cn7)CC6)c5)CC4)CC3)cc21

>  <IC50>
500 to 2500 nM

$$$$
>  <Molecule>
Cn1nc(N2CCC(=O)NC2=O)c2ccc(C3CCN(CC4CCN(c5cccc(S(=O)(=O)N6CC(Nc7ncc(C(F)(F)F)cn7)C6)c5)CC4)CC3)cc21

>  <IC50>
> 2500 nM

$$$$
>  <Molecule>
Cn1nc(N2CCC(=O)NC2=O)c2ccc(C3CCN(Cc4ccc(S(=O)(=O)N5CCC(Nc6ncc(C(F)(F)F)cn6)CC5)cc4)CC3)cc21

>  <IC50>
1 to 100 nM

$$$$

Record Cn1nc(N2CCC(=O)NC2=O)c2ccc(C3CCN(Cc4ccc(C5CCCN(S(=O)(=O)N6CCC(Nc7ncc(Cl)cn7)CC6)C5)cc4)CC3)cc21 (stereo not shown) ; system CDK2 (Homo sapiens); IC50 = 500 to 2500 nM

Record O=C1CCC(N2Cc3cc(N4CCN(CC5CCN(c6cccc(S(=O)(=O)N7CCC(Nc8ncc(OC(F)F)cn8)CC7)c6)CC5)CC4)c(F)cc3C2=O)C(=O)N1 (stereo not shown) ; system CDK2 (Homo sapiens); IC50 = 100 to 500 nM

Record Cn1cc(C2CCC(=O)NC2=O)c2ccc(C3CCN(CC4CCN(c5cccc(S(=O)(=O)N6CCC(Nc7ncc(Cl)cn7)CC6)c5)CC4)CC3)cc21 (stereo not shown) ; system CDK2 (Homo sapiens); IC50 = 100 to 500 nM

Record "Cn1nc(-n2ccc(=O)[nH]c2=O)c2ccc(C3CCN(CC4CCN(c5cccc(S(=O)(=O)N6CCC(Nc7ncc(Cl)cn7)CC6)c5)CC4)CC3)cc21" ; system CDK2 (Homo sapiens); IC50 = 100 to 500 nM

Record "Cn1nc(N2CCC(=O)NC2=O)c2ccc(C3CCN(Cc4ccc(S(=O)(=O)N5CCC(Nc6ncc(OC(F)F)cn6)CC5)cc4)CC3)c(F)c21" ; system CDK2 (Homo sapiens); IC50 = 500 to 2500 nM

Record Cn1c(=O)n(C2CCC(=O)NC2=O)c2ccc(C3CCN(CC4CCN(c5cccc(S(=O)(=O)N6CCC(Nc7ncc(C(F)(F)F)cn7)CC6)c5)CC4)CC3)cc21 (stereo not shown) ; system CDK2 (Homo sapiens); IC50 = 1 to 100 nM

Record O=C1CCC(N2Cc3cc(C4CCN(CC5CCN(c6cccc(S(=O)(=O)N7CCC(Nc8ncc(Cl)cn8)CC7)c6)CC5)CC4)c(F)cc3C2=O)C(=O)N1 (stereo not shown) ; system CDK2 (Homo sapiens); IC50 = 100 to 500 nM

Record Cn1cc(C2CCC(=O)NC2=O)c2ccc(C3CCN(CC4CCN(c5cccc(S(=O)(=O)N6CCC(Nc7ncc(C(F)(F)F)cn7)CC6)c5)CC4)CC3)cc21 (stereo not shown) ; system CDK2 (Homo sapiens); IC50 = 1 to 100 nM
